The following variants are listed with their measured self-cleavage values.
B1: CPEB3 Ribozyme (parent)
chain: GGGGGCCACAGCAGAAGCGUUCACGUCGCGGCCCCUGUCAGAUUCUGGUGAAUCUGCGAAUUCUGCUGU

variants of: B1; experiment: self-cleavage, relative activity (ratio to wild type); higher = more cleavage; co-transcriptional
Reply with just the number.

{"mutation.spec": "G11A U67A", "measured.endpoint": "self-cleavage", "reading": 0.934}
{"mutation.spec": "U26G C35U", "measured.endpoint": "self-cleavage", "reading": 0.726}

Data request: Return self-cleavage for the following variant: G25U G41U
Data returned: 0.173

Data request: Return self-cleavage for the following variant: G31U A40U
Data returned: 0.352
